Origin of the recorded values: patent US20240270826A1

Measured pKd accompanies every entry in the list below.
- TGT: SARS-CoV-2 S1-RBD fused to human Fc (S1-RBD-Fc) (SARS-CoV-2 Wuhan; human)
- PROCEDURE SUMMARY: SPR, antigen on chip
The quantity pKd is defined as the negative base-10 logarithm of the molar concentration.

Example cases with answers are listed next.
>>> test_value("NRCoV2-11 VHH (VHH) VHH: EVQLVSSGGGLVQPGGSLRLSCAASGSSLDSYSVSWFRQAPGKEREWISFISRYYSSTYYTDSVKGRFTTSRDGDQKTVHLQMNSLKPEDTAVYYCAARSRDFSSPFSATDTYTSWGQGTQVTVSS")
9.60
>>> test_value("NRCoV2-18 VHH (VHH) VHH: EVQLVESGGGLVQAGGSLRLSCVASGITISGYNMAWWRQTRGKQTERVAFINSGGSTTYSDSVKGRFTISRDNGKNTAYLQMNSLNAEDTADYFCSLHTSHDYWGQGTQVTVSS")
9.13
>>> test_value("NRCoV2-17 VHH (VHH) VHH: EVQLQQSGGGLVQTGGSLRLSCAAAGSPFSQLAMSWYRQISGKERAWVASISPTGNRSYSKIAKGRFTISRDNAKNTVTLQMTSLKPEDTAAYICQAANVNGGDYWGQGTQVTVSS")
9.40
>>> test_value("NRCoV2-03 VHH (VHH) VHH: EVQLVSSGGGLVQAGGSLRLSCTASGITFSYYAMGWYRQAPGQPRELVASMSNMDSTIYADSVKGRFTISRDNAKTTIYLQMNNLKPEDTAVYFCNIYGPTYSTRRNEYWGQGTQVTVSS")
8.82
>>> test_value("NRCoV2-20 VHH (VHH) VHH: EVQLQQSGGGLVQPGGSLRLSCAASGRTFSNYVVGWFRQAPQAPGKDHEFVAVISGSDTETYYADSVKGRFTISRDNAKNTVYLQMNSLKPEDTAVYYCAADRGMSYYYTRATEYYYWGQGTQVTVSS")
8.06

--- query ---
Enquiry: Look up and state reported pKd for NRCoV2-1d VHH (VHH) VHH: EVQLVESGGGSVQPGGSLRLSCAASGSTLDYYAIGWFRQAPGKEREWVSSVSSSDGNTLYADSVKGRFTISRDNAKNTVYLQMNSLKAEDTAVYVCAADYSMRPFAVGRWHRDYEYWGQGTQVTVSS
Return: 8.68
